Record form. Attribute: LC retention time. Fill in for each entry.
# test: RP, Thermo Scientific Hypersil GOLD, 200 × 2.1 mm, 1.9 µm, 40 °C, 0.4 mL/min, estimated dead time 1.1 min; A: water + 0.2% formic acid; B: acetonitrile; gradient (min/%B) 0/10 0.5/10 22/100 30/100 30.2/10 35/10
# experimental.context: stereoisomer not certain
Numbers only, in min.

>>> result("COc1cc(CC(CO)C(CO)Cc2ccc(O)c(OC)c2)ccc1O (centres undefined) [secoisolariciresinol]")
6.86
>>> result("O=C(CCc1ccc(O)cc1)c1c(O)cc(O)cc1OC1OC(CO)C(O)C(O)C1O (centres undefined) [phloridzin]")
6.77

Would you be so kind as to report LC retention time for each listed record?
1. OCCc1ccc(O)c(O)c1 [hydroxytyrosol]
2. O=c1ccc2ccc(O)cc2o1 [7-hydroxycoumarin]
3. O=c1c(O)c(-c2ccc(OC3OC(CO)C(O)C(O)C3O)c(O)c2)oc2cc(O)cc(O)c12 (centres undefined) [quercetin 4'-glucoside]
4. O=C(O)/C=C/c1ccc(O)cc1 [p-coumaric acid]
5. O=c1cc(-c2ccc(O)c(O)c2)oc2cc(O)cc(O)c12 [luteolin]
6. CC(C)C1=CC2=CCC3C(C)(C(=O)O)CCCC3(C)C2CC1 (centres undefined) [abietic acid]

Reply |
1. 2.46
2. 5.43
3. 6.25
4. 5.04
5. 7.75
6. 19.3

Ask | Returns the measured LC retention time for the input molecule. Input: O=C(C=Cc1ccc(O)c(O)c1)OC1CC(O)(C(=O)O)CC(O)C1O (centres undefined) [chlorogenic acid]
Reply | 3.21

* * *

# test: RP, Thermo Scientific Hypersil GOLD, 200 × 2.1 mm, 1.9 µm, 40 °C, 0.4 mL/min, estimated dead time 1.1 min; A: water + 0.2% formic acid; B: acetonitrile; gradient (min/%B) 0/10 0.5/10 22/100 30/100 30.2/10 35/10
# experimental.context: stereoisomer not certain
Give LC retention time for every item shown.

>>> result("CC1CCC2C(C)C3C(CC4C5CC=C6CC(OC7OC(CO)C(O)C(OC8OC(CO)C(O)C(O)C8O)C7OC7OC(C)C(O)C(O)C7O)CCC6(C)C5CCC43C)N2C1 (centres undefined)")
"7.91 min"
>>> result("O=C(C=Cc1ccc(O)c(O)c1)OCCc1ccccc1")
"12.2 min"
>>> result("CC1OC(OCC2OC(Oc3c(-c4ccc(O)c(O)c4)oc4cc(O)cc(O)c4c3=O)C(O)C(O)C2O)C(O)C(O)C1O (centres undefined) [quercetin 3-rutinoside]")
"5.07 min"

Shift focus to the following entry.
Ask | # get_value(readout='LC retention time', item= CC1CCC2(C(=O)O)CCC3(C)C(=CCC4C5(C)CC(O)C(O)C(C)(CO)C5CCC43C)C2C1C (centres undefined) )
Reply | 12.7 min

* * *

# test: RP, Thermo Scientific Hypersil GOLD, 200 × 2.1 mm, 1.9 µm, 40 °C, 0.4 mL/min, estimated dead time 1.1 min; A: water + 0.2% formic acid; B: acetonitrile; gradient (min/%B) 0/10 0.5/10 22/100 30/100 30.2/10 35/10
# experimental.context: stereoisomer not certain
property.name: LC retention time (min)
Numbers only, in min.

Some solved cases for reference:
>>> result("O=C1CC(c2ccc(O)cc2)Oc2cc(O)cc(O)c21 (centres undefined)")
8.88
>>> result("COc1ccc(C2CC(=O)c3c(O)cc(OC4OC(CO)C(O)C(O)C4OC4OC(C)C(O)C(O)C4O)cc3O2)cc1O (centres undefined) [hesperetin 7-O-neohesperidoside]")
6.61
>>> result("COc1ccc(C2CC(=O)c3c(O)cc(OC4OC(COC5OC(C)C(O)C(O)C5O)C(O)C(O)C4O)cc3O2)cc1O (centres undefined) [hesperetin 7-rutinoside]")
6.39
>>> result("COc1ccc(C2CC(=O)c3c(O)cc(O)cc3O2)cc1O (centres undefined)")
9.3
>>> result("COc1cc(CC2COC(c3ccc(O)c(OC)c3)C2CO)ccc1O (centres undefined)")
7.24

Each molecule below has a recorded value; state its LC retention time.
1. CC1OC(OC2C(Oc3cc(O)c4c(c3)OC(c3ccc(O)cc3)CC4=O)OC(CO)C(O)C2O)C(O)C(O)C1O (centres undefined) [naringenin 7-O-neohesperidoside]
2. O=C(C=Cc1ccc(O)cc1)OC1CC(O)(C(=O)O)CC(O)C1O (centres undefined)
3. O=C(O)c1ccc(O)c(O)c1
4. CC1CCC2C(C)C3C(CC4C5CC=C6CC(OC7OC(CO)C(OC8OC(C)C(O)C(O)C8O)C(O)C7OC7OC(C)C(O)C(O)C7O)CCC6(C)C5CCC43C)N2C1 (centres undefined)
5. COc1cc(-c2[o+]c3cc(O)cc(O)c3cc2OC2OC(CO)C(O)C(O)C2O)cc(OC)c1O (centres undefined) [malvidin 3-glucoside]
6. CC=C1C(OC2OC(CO)C(O)C(O)C2O)OC=C(C(=O)OC)C1CC(=O)OCCc1ccc(O)c(O)c1 (centres undefined)
7. O=c1c(O)c(-c2ccc(O)c(O)c2)oc2cc(O)cc(O)c12

Reply |
[6.18, 4.21, 2.41, 7.97, 3.86, 7.05, 7.8]

Required: LC retention time, one value per molecule below.
1. C=C(C)C1CCC2(C(=O)O)CCC3(C)C(CCC4C5(C)CCC(O)C(C)(C)C5CCC43C)C12 (centres undefined)
2. CC1CCC2(NC1)OC1CC3C4CCC5CC(OC6OC(CO)C(OC7OC(CO)C(O)C(OC8OCC(O)C(O)C8O)C7OC7OC(CO)C(O)C(O)C7O)C(O)C6O)CCC5(C)C4CCC3(C)C1C2C (centres undefined)

Reply |
18.8
7.55
